Taken from ChEMBL document CHEMBL3885861.

Species on record: Rattus norvegicus
Test: Open TG-GATES - Regimen: Single
Type: toxicity, organism-based, Sprague-Dawley
Design: regimen Single, gender Male, age 6 weeks
Conditions: in vivo, po, 10 mg/kg, 6 h, tissue Plasma, route gavage, dose level Low
parameter.measured: IP (mg/dL)
Give the value, in units of mg/dL, as a plain number.

CN(C)CCCN1c2ccccc2CCc2ccccc21 ... 9.6
CC1=C(/C=C/C(C)=C/C=C/C(C)=C/CO)C(C)(C)CCC1 ... 10.3

Query block: Which IP reading was recorded for the molecule `CN(C)CCCN1c2ccccc2CCc2ccc(Cl)cc21` ?
Result block: 9.4

Query block: Which IP reading was recorded for the molecule CC(C)OC(=O)C(C)(C)Oc1ccc(C(=O)c2ccc(Cl)cc2)cc1 [FENOFIBRATE] ?
Result block: 10.2

Query block: Which IP reading was recorded for the molecule `CN(C)CCN(Cc1cccs1)c1ccccn1` ?
Result block: 9.6

---

Known Plat of a selection of compounds
Organism: Rattus norvegicus
Assay: Open TG-GATES - Regimen: Daily Repeat
Type: toxicity, organism-based, Sprague-Dawley
Parameters: regimen Daily Repeat, gender Male, age 6 weeks
Conditions: in vivo, po, 10 mg/kg, […], tissue Blood, route gavage, dose level Low, time 28 day
Give the value, in units of x10_4/uL, as a plain number.

Query block: Which Plat reading was recorded for the compound `CN(C)CCCN1c2ccccc2CCc2ccccc21` ?
Result block: 96.2

Query block: Which Plat reading was recorded for the compound `CN(C)CCN(Cc1cccs1)c1ccccn1` ?
Result block: 96.3

Query block: Which Plat reading was recorded for the compound CC(C)OC(=O)C(C)(C)Oc1ccc(C(=O)c2ccc(Cl)cc2)cc1 [FENOFIBRATE] ?
Result block: 105.5

Query block: Which Plat reading was recorded for the compound `CC1=C(/C=C/C(C)=C/C=C/C(C)=C/CO)C(C)(C)CCC1` ?
Result block: 102.3

---

Organism: Rattus norvegicus
Assay: Open TG-GATES - Regimen: Single
Format: toxicity, organism-based, Sprague-Dawley
Design: regimen Single, gender Male, age 6 weeks
Settings: in vivo, po, 100 mg/kg, 6 h, tissue Plasma, route gavage, dose level High
parameter.measured: RALB (g/dL)
Give the value, in units of g/dL, as a plain number.

Recorded RALB, per entry:
CC1=C(/C=C/C(C)=C/C=C/C(C)=C/CO)C(C)(C)CCC1 ... 3.1
CN(C)CCCN1c2ccccc2CCc2ccc(Cl)cc21 ... 2.5
CN(C)CCCN1c2ccccc2CCc2ccccc21 ... 2.5

// below: RALB requested for another molecule
Query block: Which RALB reading was recorded for the molecule `CN(C)CCN(Cc1cccs1)c1ccccn1` ?
Result block: 2.8

---

Species on record: Rattus norvegicus
Test: Open TG-GATES - Regimen: Single
Type: toxicity, organism-based, Sprague-Dawley
Design: regimen Single, gender Male, age 6 weeks
Settings: in vivo, po, 100 mg/kg, 24 h, tissue Blood, route gavage, dose level Low
Known RBC of a selection of compounds
Give the value, in units of x10_4/ul, as a plain number.

Recorded RBC, per entry:
CCOC(=O)CCC(=O)O[C@H]1[C@H](O[C@@H]2[C@@H](C)[C@H](O[C@H]3C[C@@](C)(OC)[C@@H](O)[C@H](C)O3)[C@@H](C)C(=O)O[C@H](CC)[C@@](C)(O)[C@H](O)[C@@H](C)C(=O)[C@H](C)C[C@@]2(C)O)O[C@H](C)C[C@@H]1N(C)C [ERYTHROMYCIN ETHYLSUCCINATE] ... 670
COc1ccc2[nH]c([S+]([O-])Cc3ncc(C)c(OC)c3C)nc2c1 (centres undefined) ... 604.8

Query block: Which RBC reading was recorded for the compound `NC(N)=Nc1nc(CSCCC(N)=NS(N)(=O)=O)cs1` ?
Result block: 599.4

Query block: Which RBC reading was recorded for the compound `COC1=CC(=O)C[C@@H](C)[C@]12Oc1c(Cl)c(OC)cc(OC)c1C2=O` ?
Result block: 626.6
